assay-target: Transcription factor E2F1 (Homo sapiens)
test-method-notes: ATG_E2F_CIS: Attagene CIS-FACTORIAL HepG2 Assay for human E2F Transcription Factor 1 (AID 2282935)
assay-context: HepG2 Attagene cis-reporter, E2F reporter RNA transcripts; actives raise or lower the signal
The source made the active and inactive calls. The calls were made as follows: active = hit-call score of the fitted dose curve at least 0.9, where 1 is the maximum; inactive = score below 0.9.
Possible outcomes: 1 (active), -1 (inactive)

molecule	classification
OCCCC(F)(F)C(F)(F)C(F)(F)F	-1
O=C(C=Cc1ccccc1)OCC=Cc1ccccc1	-1
FC1CC(F)(F)C(F)(F)C1(F)F (stereo unspecified)	-1
FC(F)(F)C(F)(F)C(F)(F)N(C(F)(F)C(F)(F)C(F)(F)F)C(F)(F)C(F)(F)C(F)(F)F	-1
O=C(O)C(F)(OC(F)(F)C(F)(OC(F)(F)C(F)(F)C(F)(F)F)C(F)(F)F)C(F)(F)F (stereo unspecified)	-1
FC(F)(F)C(F)(F)CNCC(F)(F)C(F)(F)F	-1
O=C(OCCOCCOCCOC(=O)c1ccccc1)c1ccccc1	-1
Cc1cccc(N(C)C)c1	-1
OCC(F)(F)C(F)(F)C(F)(F)C(F)(F)C(F)(F)C(F)(F)F	1
CO[Si](OC)(c1ccccc1)c1ccccc1	-1
N=C(N)C(F)(F)C(F)(F)C(F)(F)C(F)(F)C(F)(F)C(F)(F)C(F)(F)F	1

Values were extracted from PubChem BioAssay (EPA / NIEHS).
